- TEST_PARAMETERS: pampa; pH 5.0; 30.0 min; 50.0 µM
MEASURED_ENDPOINT: Papp

* C[C@@]1(c2ncncc2F)NC(=O)c2cc(-c3cn[nH]c3)ccc21 | > 1000 ×10⁻⁶ cm/s
* CC(C)c1ccc(OCc2nc3c(n2Cc2ccccc2)C(=O)N(CC2CCOCC2)CCN3)cc1 | 643 ×10⁻⁶ cm/s
* O=C(O)c1ccc(-c2c[nH]c3ncc(-c4ccccc4)cc23)cc1C1CCCC1 | 400 ×10⁻⁶ cm/s
* CS(=O)(=O)CCNCc1ccc(-c2ccc3ncnc(Nc4ccc(OCc5cccc(F)c5)c(Cl)c4)c3c2)o1 | 69.7 ×10⁻⁶ cm/s
* O=C(NC[C@H]1Cn2c(-c3ccc(Cl)cc3)cnc2CO1)C1CCCC1 | 19.4 ×10⁻⁶ cm/s
* CC(C)CNc1ccnc(NCc2csc(-c3ccccc3)n2)n1 | > 1000 ×10⁻⁶ cm/s
* Cc1ccnc(NC(=O)C2CC(=O)N(c3n[nH]c4cc(Br)ccc34)C2)c1 (stereo not drawn) | 62.8 ×10⁻⁶ cm/s
* Cc1cccc(S(=O)(=O)c2cn(Cc3ccccc3)c3cc(N4CCCC(C)C4)c(F)cc3c2=O)c1 (stereo not drawn) | 832 ×10⁻⁶ cm/s
* CCOC(=O)c1[nH]c(C)c(CCC(=O)N2CCN(c3cc(C)ccc3C)CC2)c1C | > 1000 ×10⁻⁶ cm/s
* Cc1cc(C)nc(NS(=O)(=O)c2ccc(NC(=S)NC(=O)COc3ccc(Br)cc3Cl)cc2)n1 | > 1000 ×10⁻⁶ cm/s
* CCc1[nH]c2ccc(CNC(=O)Cc3cnc4c(C)cccn34)cc2c1C | 32.2 ×10⁻⁶ cm/s
* C[C@]1(CO)CN(c2cc(C(=O)Nc3ccc4c(c3)-c3c(c(C(N)=O)nn3-c3ccc(F)cc3)CC4)c(Cl)cn2)C[C@@]1(C)CO | 45.6 ×10⁻⁶ cm/s
* CC(=O)NCCNC(=O)c1ccc(-c2ncc3cnc(-c4cccc(F)c4)cn23)cc1 | 7.62 ×10⁻⁶ cm/s
* NC(=O)N1CCCC(C(=O)N2CCCN(c3ccc(F)cc3)CC2)C1 (stereo not drawn) | 96.2 ×10⁻⁶ cm/s
* CCCCOc1ccc(CNC(=O)c2cc3n(n2)CCCN(Cc2ccc(C)cc2)C3=O)cc1 | 867 ×10⁻⁶ cm/s
* O=C(O)c1cnc(-c2ccc(F)cc2)nc1-c1ccncc1 | 38.3 ×10⁻⁶ cm/s
* CCOC(=O)c1cnc2ccc(-c3cncc(NS(=O)(=O)c4ccccc4)c3)cn12 | 546 ×10⁻⁶ cm/s
* CCc1cccc(NC(=O)c2cc(-c3ccc[nH]3)n[nH]2)c1 | 90.2 ×10⁻⁶ cm/s
* CCOc1ccc(OCC)c(NC(=O)C(NS(=O)(=O)c2ccc(Br)s2)c2ccccc2)c1 (stereo not drawn) | 637 ×10⁻⁶ cm/s
* CC[C@H](C)[C@@H]([C@@H](CC(=O)N1CCC[C@H]1[C@H](OC)[C@@H](C)C(=O)N[C@@H](Cc1ccccc1)c1nccs1)OC)N(C)C(=O)[C@@H](NC(=O)[C@H](C(C)C)N(C)C)C(C)C | 224 ×10⁻⁶ cm/s
* CCN(CCCOc1ccc2c(Nc3cc(CC(=O)Nc4cccc(F)c4)[nH]n3)ncnc2c1)CCOP(=O)(O)O | 3.64 ×10⁻⁶ cm/s
* COc1cccc(-n2nc(C(=O)O)cc2-c2ccc(C3CCCCC3)c(Cl)c2)c1 | 401 ×10⁻⁶ cm/s
* COc1ccc(C(=O)NC2CCCc3c2[nH]c2ccccc32)cc1OC (stereo not drawn) | 238 ×10⁻⁶ cm/s
* COCC(C)NCc1cc2ccc(OC)cc2nc1N1CCN(c2ccc(F)cc2)CC1 (stereo not drawn) | 576 ×10⁻⁶ cm/s
* Cc1noc(C)c1-c1cc(-c2ccc3c(c2)C(=O)NC3)cn2cncc12 | 64.5 ×10⁻⁶ cm/s
* COc1ccc(-c2noc(CSc3nnc(Cc4ccccc4)n3-c3ccc(F)cc3)n2)cc1 | > 1000 ×10⁻⁶ cm/s
* Cc1ccc2oc3c(c(=O)c2c1)C(c1ccc(O)cc1)N(CCCN(C)C)C3=O (stereo not drawn) | 3.9 ×10⁻⁶ cm/s
* COc1cc(C(=O)NC2CCCc3c2[nH]c2ccccc32)cc(OC)c1OC (stereo not drawn) | 926 ×10⁻⁶ cm/s
* CCOC(=O)C1=C(CN(CC)Cc2ccccc2)NC(=O)NC1c1ccc(OC(C)C)cc1 (stereo not drawn) | > 1000 ×10⁻⁶ cm/s
* C[C@]12N[C@H](Cc3ccccc31)c1ccccc12 | 72.8 ×10⁻⁶ cm/s
* CN1C(=O)C(=O)N2C(=C[C@]3(c4c[nH]c5ccccc45)c4ccccc4N[C@H]23)C1=O | 986 ×10⁻⁶ cm/s
* CCC1=Nc2cc(C(=O)NC3CCCC3)ccc2Sc2ccc(Cl)cc21 | 640 ×10⁻⁶ cm/s
* COC(=O)C1=C(C)NC(C)=C(C(=O)O[C@@H]2CCCN(Cc3ccccc3)C2)[C@@H]1c1cccc([N+](=O)[O-])c1 | > 1000 ×10⁻⁶ cm/s
* O=C(O)c1cccc(-c2noc(-c3ccccc3F)n2)c1 | 892 ×10⁻⁶ cm/s
* COc1cc(NC(=O)Cn2c(=O)oc3cc(S(=O)(=O)N4CCCCCC4)ccc32)cc(OC)c1 | 372 ×10⁻⁶ cm/s
* COc1cc(Cl)c(C)cc1NS(=O)(=O)c1c(C)nc2sccn2c1=O | 802 ×10⁻⁶ cm/s
* COc1ccc(CN2CCNc3cc(Nc4ccccc4)ncc3C2)cc1 | 119 ×10⁻⁶ cm/s
* CNC(=O)c1ccc(C)c(-n2c(C)cc(OCc3ccc(F)cc3F)c(Br)c2=O)c1 | 627 ×10⁻⁶ cm/s

* * *

- TEST_PARAMETERS: pampa; pH 5.0; 30.0 min; 50.0 µM
Classify: 1.0 when Papp is strictly less than 500 ×10⁻⁶ cm/s; 0.0 when Papp is not.

* CCC(=O)N1CCN(c2ccc(-n3c(=O)ccc4cnc5ccc(-c6cnc7ccccc7c6)cc5c43)cc2C(F)(F)F)CC1 | 0.0
* CNc1nc2c(s1)C(c1ccc(Cl)cc1)CC(=O)N2 (stereo not given) | 1.0
* O=c1ncn2nc(Sc3ccc(F)cc3F)ccc2c1-c1c(Cl)cccc1Cl | 0.0
* NC(=O)Nc1cc(-c2ccc(CN3CCOCC3)cc2)sc1C(N)=O | 1.0
* Cn1c(=O)c2c(-c3ccc(Cl)cc3)n(CCc3ccccc3)cc2n(C)c1=O | 0.0
* COc1cc2c(c(OC)c1OC)-c1ccc(SC)c(=O)cc1C(N)CC2 (stereo not given) | 1.0
* COc1cc(C(=O)NC2CCCc3c2[nH]c2c(Cl)cccc32)cc(OC)c1OC (stereo not given) | 1.0
* COc1c(O)cc2c(c1OC)-c1ccc(SC)c(=O)cc1C(NC(C)=O)CC2 (stereo not given) | 1.0
* O=C(C1CC(=O)N(c2n[nH]c3ccccc23)C1)N1CCC(c2noc3cc(F)ccc23)CC1 (stereo not given) | 0.0
* Cc1ccc(S(=O)(=O)N2CCN(C(=O)c3cc4c(s3)CCC4)CC2)cc1 | 0.0

* * *

- TEST_PARAMETERS: pampa; pH 5.0; 30.0 min; 50.0 µM
Square brackets hold non-standard residues; d marks the D form. Peptide text beside a SMILES is read from it. ξ: configuration not given here. ξLac(3-iPr) = CC(C)CC(O)C(=O)O; NMeV = CN[CH](C(=O)O)C(C)C; NMeA = CN[CH](C)C(=O)O; βAla = NCCC(=O)O
class 1 means recorded Papp is 6000 nm/s or above; class 0 means it is below 6000 nm/s.

• CCc1cc(Cl)c(OC)c(C(=O)NC[C@@H]2CCCN2CC)c1O = class 1
• COc1ccc(-c2ccc3ncc(Nc4cccnc4OC)n3n2)cn1 = class 1
• Cc1ccc2nc(-c3cc(NC(=O)c4ccc5c(c4)OCCO5)ccc3Cl)oc2c1 = class 0
• CN(C)CCCn1cc(C2=C(c3c[nH]c4ccccc34)C(=O)NC2=O)c2ccccc21 = class 0
• CNc1sc(-c2cccc3ccccc23)nc1C#N = class 0
• Nc1c(-c2ccncc2)cc[nH]c1=O = class 0
• COc1ccc(-c2cc(-c3cccc(NC(C)=O)c3)cn3cncc23)cn1 = class 0
• COc1cc(NC(=O)c2nc3ccccc3n(C)c2=O)cc(OC)c1OC = class 0
• COc1ccc(Nc2cnc3ccc(-c4ccc(OC)c(OC)c4)nn23)cc1 = class 1
• COc1ccc(-n2nc(C3CCCN(C(=O)Nc4ccccc4)C3)[nH]c2=O)cc1 (stereo not given) = class 0
• Cc1cnc(SCc2ccccn2)nc1C1CCCN(C(=O)c2scc3c2CCCC3)C1 (stereo not given) = class 1
• COc1ccccc1N1CCN(CCN(C(=O)c2ccc(I)cc2)c2ccccn2)CC1 = class 1
• CCC(C)C1NC(=O)C2CCCN2C(=O)C(CC(C)C)OC(=O)CCNC(=O)C(C)N(C)C(=O)C(C(C)C)N(C)C1=O (stereo not given) (cyclo([ξLac(3-iPr)]PI[NMeV][NMeA][βAla]); configuration not given here) = class 0
• CN(C)c1ccc(-c2cc[nH]c(=O)c2N)cc1 = class 0
• Cc1ccccc1S(=O)(=O)N1CCCC(CCC(=O)NCCN(C)C2CCCCC2)C1 (stereo not given) = class 0
• COc1ccc(-n2nc(C3CCN([S+](=O)([O-])c4cccc(C(F)(F)F)c4)CC3)[nH]c2=O)cc1 = class 0
• CCN(CC)C(=O)c1coc(COc2ccc3c(c2)C(c2cccc(F)c2)N(C(=O)C(C)C)CC3)n1 (stereo not given) = class 1
• Cn1cnc(-c2nccc3c(=O)[nH]c(OCCCC(F)(F)F)nc23)c1 = class 0
